Test: Intravenous and oral dosing pharmacokinetic screen, plasma concentration by LC/MS/MS
Parameters: species or system C57BL/6 mice
Settings: male, C57BL/6, mouse, in vivo, po, 10 mg/kg, B02 concentration
parameter_measured: concentration at 0.5 h (ng/mL)
Return type: number; implicit unit ng/mL.

*Q* Request the reported concentration at 0.5 h associated with CO/N=C/c1c(O)cccc1OCc1ccc(C(=O)O)cc1 [Compound B02]
*A* 3370

---

Assay: Intravenous and oral dosing pharmacokinetic screen, plasma concentration by LC/MS/MS
Parameters: species or system C57BL/6 mice
Conditions: male, C57BL/6, mouse, in vivo, iv, 3 mg/kg, B02 concentration
parameter_measured: concentration at 0.083 h
Provide a numeric answer, followed by its unit.

*Q* Entry CO/N=C/c1c(O)cccc1OCc1ccc(C(=O)O)cc1 : reported concentration at 0.083 h = ?
*A* 3220 ng/mL

---

Test: Pharmacokinetics of tucaresol after a single dose in healthy subjects
Conditions: human, plasma, 2000 mg, Cmax; single dose 2000 mg; single subjects
parameter_measured: Cmax
State the value, then name its unit.

*Q* Would you mind telling me what Cmax value was observed for O=Cc1c(O)cccc1OCc1ccc(C(=O)O)cc1 [Tucaresol] ?
*A* 60.8 µg/mL

---

Experiment: Pharmacokinetics of tucaresol after a single dose in healthy subjects
Conditions: human, plasma, 800 mg, Cmax; single dose 800 mg; single subjects
parameter_measured: Cmax (ng/mL)
Respond numerically; units are ng/mL and should not be typed.

*Q* For the compound shown here, O=Cc1c(O)cccc1OCc1ccc(C(=O)O)cc1 , give the reported Cmax.
*A* 28300

---

Assay: Intravenous and oral dosing pharmacokinetic screen, plasma concentration by LC/MS/MS
Set-up: species or system C57BL/6 mice
Settings: male, C57BL/6, mouse, in vivo, iv, 3 mg/kg, B02 concentration, Mean
parameter_measured: concentration at 4 h (ng/mL)
Just the number in ng/mL, nothing appended.

*Q* Look up concentration at 4 h for this compound: CO/N=C/c1c(O)cccc1OCc1ccc(C(=O)O)cc1 [Compound B02]
*A* 54

---

Experiment: Intravenous and oral dosing pharmacokinetic screen, plasma concentration by LC/MS/MS
Set-up: species or system C57BL/6 mice
Settings: male, C57BL/6, mouse, in vivo, iv, 3 mg/kg, Tucaresol concentration
parameter_measured: concentration at 2 h (ng/mL)
# value in ng/mL; strip the unit string

*Q* // lookup concentration at 2 h for O=Cc1c(O)cccc1OCc1ccc(C(=O)O)cc1
*A* 473

---

Experiment: Intravenous and oral dosing pharmacokinetic screen, plasma concentration by LC/MS/MS
Design: species or system C57BL/6 mice
Settings: male, C57BL/6, mouse, in vivo, po, 10 mg/kg, B02 concentration
parameter_measured: concentration at 24 h (ng/mL)
Numbers only; they are read as ng/mL.

*Q* Any idea what its concentration at 24 h is? The molecule is CO/N=C/c1c(O)cccc1OCc1ccc(C(=O)O)cc1 [Compound B02]
*A* 6.93

---

Assay: Pharmacokinetics of tucaresol after a single dose in healthy subjects
Details: human, plasma, 400 mg, tmax; single dose 400 mg; single subjects
parameter_measured: Tmax (h)
Answer format: numeric, h implied, no suffix.

*Q* Looking for the measured Tmax of O=Cc1c(O)cccc1OCc1ccc(C(=O)O)cc1 [Tucaresol] , can you help?
*A* 4.03

---

Assay: Intravenous and oral dosing pharmacokinetic screen, plasma concentration by LC/MS/MS
Set-up: species or system C57BL/6 mice
Settings: male, C57BL/6, mouse, in vivo, po, 10 mg/kg, C02 concentration
parameter_measured: concentration at 0.5 h (ng/mL)
The figure you give is taken to be in ng/mL; do not add the unit.

*Q* Data request, read-out concentration at 0.5 h, for O=Cc1c(OCc2ccc(C(=O)O)cc2)cccc1OC1O[C@H](CO)[C@@H](O)[C@H](O)[C@H]1O (stereo partly shown)
*A* 59.1

meta.source: patent US20220387365A1
